Data credit: PubChem BioAssay

Collected z-score values appear next to each entry.
experiment_notes: E. coli DRC41 culture turbidity changes, primary screen, E. coli filamentation inducer project, strain DRC41, OD650, 48 h (AID 1152);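 note: E. coli MC1000 strain DRC41 lacking acrAB efflux pump and sulA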
experimental_parameters: E. coli DRC41 (acrAB sulA), higher = more signal, called active from +8 up or from −8 down
Active and inactive are the calls of the source.

>  <mol>
COCCOC(=O)N1C(=O)[C@@]2(c3cc(C#CC4(O)CCCCCC4)ccc31)[C@H](c1ccc(OCCO)cc1)N1[C@H](c3ccccc3)[C@H](c3ccccc3)OC(=O)[C@H]1[C@@H]2C(=O)N1CCCCCCC1

>  <result>
0.148 (inactive)

$$$$
>  <mol>
C=CC[C@]1(C(=O)NCc2ccccc2)COC(c2ccc(OCCCO)cc2)=N1

>  <result>
0.553 (inactive)

$$$$
>  <mol>
CCOC(=O)C1=C[C@@H](C(C)(C)C)N(S(=O)(=O)c2ccc(C)cc2)[C@H]1c1ccccc1Cl

>  <result>
-1.29 (inactive)

$$$$

Supply recorded z-score for "COCCOC(=O)N1C(=O)[C@@]2(c3ccccc31)[C@H](C(N)=O)[C@H]1C(=O)O[C@H](c3ccccc3)[C@H](c3ccccc3)N1[C@@H]2c1ccc(OCCO)cc1" here.
1.15 (inactive)

Read off the recorded z-score for "Cc1ccc(F)cc1S(=O)(=O)N[C@@H]1CCN(Cc2ccc3[nH]ccc3c2)C1"
-5.9 (inactive)

Specify reported z-score for the compound shown: "COC(=O)[C@@]1(CCS(=O)(=O)c2ccccc2)N=C(c2ccc(OCCCO)cc2)O[C@H]1c1ccccc1N=[N+]=[N-]"
-0.527 (inactive)

Answer with reported z-score of "CC(C)C(=C=CC[C@@H](O)c1ccccc1OCCO)C[C@@H](O)c1cc(Cl)cc(Cl)c1O"
-0.701 (inactive)

###

experiment_notes: A549 lung cancer cell viability effects, profiling panel, resazurin fluorescence, 24 h, PK04 Diversity Set (AID 1171); note: test concentration not given here
experimental_parameters: higher = more signal, called active from +8 up or from −8 down
Record MET whenever z-score is at -0.5 or higher; record NOT MET when lower.

>  <compound>
COc1ccc([Si](C)(C)[C@H]2[C@H](CC(=O)N3Cc4ccccc4C[C@H]3CO)O[C@@]3(C(=O)N(Cc4cccc(N5C(=O)c6cccc7cccc5c67)c4)c4ccccc43)[C@@H]2C)cc1

>  <class_assignment>
NOT MET

$$$$
>  <compound>
COC(=O)Cn1c(C(=O)N(C)C)cc2c1C[C@H]1CN(C(=O)c3ccccc3)[C@@](Cc3ccc(OC)cc3)(C(=O)OC)[C@@H]21

>  <class_assignment>
MET

$$$$
>  <compound>
CC(C)C[C@@H]1NC(=O)[C@H]2C[C@@H](C(=O)NCCCCCNC(=O)CS)[C@@H](c3ccc(O)cc3)N2C1=O

>  <class_assignment>
NOT MET

$$$$
>  <compound>
C=C(/C(=C/C[C@H](OC(=O)c1ccncc1)c1ccccc1OCCO)c1cc(C(=O)OC)ccc1OC)C(C)C

>  <class_assignment>
MET

$$$$

Is z-score for "CN(C)CCCCNC(=O)[C@H]1C[C@H]2C(=O)N[C@@H](Cc3ccccc3)C(=O)N2[C@H]1c1cccc(OCCO)c1" at or above -0.5?
MET

hey, is z-score for this one >= -0.5? "CN(C)C(=O)[C@@]1(CCS(=O)(=O)c2ccccc2)N=C(c2ccc(OCCCO)cc2)O[C@H]1c1ccccc1N=[N+]=[N-]"
MET

// inclusive: z-score at least -0.5? input: "C=C(COC)C(=O)CC[C@@H](OC(C)=O)c1ccc(OCCO)cc1"
MET

Given the entry "[N-]=[N+]=NCc1ccccc1C[C@@]1(C(=O)O)N=C(c2ccc(OCCCO)cc2)O[C@@H]1c1ccccc1CN=[N+]=[N-]" , answer whether its z-score meets or surpasses -0.5.
MET

Check this compound for z-score at or above -0.5: COc1ccc(C(O)C2C=CC3C(=O)N(C)C(=O)C3N2Nc2ccc([N+](=O)[O-])cc2[N+](=O)[O-])cc1OCc1ccccc1 (centres undefined)
NOT MET

# check: z-score of "CN(C)CCCC[C@@H]1NC(=O)[C@@H]2C[C@H](C(=O)NCCCCCCNC(=O)CS)[C@H](c3cccc(OCCO)c3)N2C1=O" is greater than or equal to -0.5
NOT MET

Could you verify whether the entry "CN(C)CCCC[C@@H]1NC(=O)[C@@H]2C[C@H](C(=O)NCc3ccc(F)cc3)[C@H](c3ccc(O)cc3)N2C1=O" shows z-score of no less than -0.5?
MET

Quick check, z-score >= -0.5? "CC(C)C(=C=CC[C@@H](O)c1ccccc1OCCO)C[C@@H](O)c1cc(Cl)cc(Cl)c1O"
MET

Hi, just wondering whether "C=CCN1C(=O)[C@]2(O[C@H](CCn3cc([C@H](O)c4ccccc4)nn3)[C@@H]([Si](C)(C)c3ccc(OC)cc3)[C@@H]2C)c2cc(N3C(=O)c4cccc5cccc3c45)ccc21" shows z-score of -0.5 or higher.
NOT MET

Hi, just wondering whether "C=CCOC(=O)[C@H]1[C@@H]2C(=O)O[C@@H](c3ccccc3)[C@@H](c3ccccc3)N2[C@@H](c2ccc(OCCOC(=O)[C@@H]3C[C@@H]4C(=O)N[C@@H](Cc5ccccc5)C(=O)N4[C@@H]3c3ccc(O)cc3)cc2)[C@]12C(=O)Nc1ccccc12" shows z-score of -0.5 or higher.
MET
